Taken from ChEMBL document CHEMBL1201862.

- Tested on: CCRF-CEM
- Protocol summary: NCI tumour cell line growth inhibition, 48 h
Active and inactive are the calls of the source. Rule as the data show it: active = GI50 up to about 1.1 µM and inactive = higher.
The entries below come with measured GI50 values attached.
Measure: GI50

CCOC(=O)C(C(=O)OCC)=c1sc(=C(C(=O)OCC)C(=O)OCC)s1 = > 100 µM (inactive)
Cc1ccc(C)c(NC(=O)C(=O)C(c2cnc3ccc([N+](=O)[O-])cc3n2)[N+](=O)[O-])c1 (stereo not given) = 24.4 µM (inactive)
O=c1[nH]c(=O)n(C2CC(O)C(CO)O2)cc1C(OCC(F)(F)F)OCC(F)(F)F (stereo not given) = 70.8 µM (inactive)
O=C(CCc1nnc2s/c(=C\c3ccc(Cl)cc3Cl)c(=O)n12)Nc1cc(Cl)c(Cl)cc1Cl = > 10 µM (inactive)
Nc1ccc(Cc2ccc(/N=C\c3ccc(OCc4cccc(COc5ccc(/C=N\c6ccc(Cc7ccc(N)cc7)cc6)cc5)n4)cc3)cc2)cc1 = > 100 µM (inactive)
CCCCC[C@@H]1OC(=O)[C@@]2(CC3c4ccccc4C2c2ccccc23)[C@H]1C(=O)OC = 17.2 µM (inactive)
CCCNC(=S)N/C=C1/C(=O)Oc2ccccc2C1=O = > 100 µM (inactive)
N=C(N)N/N=C/c1c(-c2cccc([N+](=O)[O-])c2)nc2n1CCS2 = 22.2 µM (inactive)
CCCCCCCCC[C@@H]1C[C@@H]2CCC3C(C(=O)OCCCCNC(=O)OCc4ccccc4)=C(C)N=C(N1)N32 (stereo not given in full) = 2.52 µM (inactive)
[O-][n+]1onc(-c2ccccc2)c1-c1no[n+]([O-])c1-c1c(-c2ccccc2)no[n+]1[O-] = 5.18 µM (inactive)

* * *

- Tested on: HCT-116
- Protocol summary: NCI tumour cell line growth inhibition, 48 h
Calls of active or inactive are those of the source. Cut-off read from the data, not from the text of the source: active = GI50 up to about 1.1 µM and inactive = higher.
Classes used: active, inactive

COC(=O)C1(C)C=C(Nc2ccccc2)C(=O)N1c1ccccc1 (configuration not stated) = inactive
O=C(O)Cc1cc(F)ccc1C(=O)O = inactive
CN1C/C(=C\c2cccs2)C2=NN(C)C(c3cccs3)C2C1 (configuration not stated) = inactive
C[N+](C)(CCNc1ccc(NCC[N+](C)(C)Cc2ccc([N+](=O)[O-])cc2)c2c1C(=O)c1c(O)ccc(O)c1C2=O)Cc1ccc([N+](=O)[O-])cc1 = inactive
Cn1c2ccccc2c2nc3ccccc3c(Cl)c21 = inactive
CCOC(=O)C1CCCN1C(=O)c1ccccc1Cl (configuration not stated) = inactive
CCCNC(=S)N/C=C1/C(=O)Oc2ccccc2C1=O = inactive
CCC(/C=C/C1OC(=O)C=CC1C)=C\C(C)C/C=C/C(C)=C/C(C)C(=O)C(C)C(O)C(C)C/C(C)=C/C(=O)O (configuration not stated) = inactive
O=C(/C=N/O)c1c(-c2ccccc2)[nH]c(-c2ccccc2)c1-c1ccccc1 = inactive
COc1cc(/C=C2\CCc3ccccc3C2=O)cc(OC)c1OC = inactive
O=c1[nH]c(=O)c2c([nH]1)[nH]c1ccccc12 = inactive
COc1cccc(-n2c(N)c(-c3nc4cc(C(F)(F)F)ccc4s3)c3ccc([N+](=O)[O-])cc3c2=O)c1 = inactive
Cc1nc2ccccc2n1C(=O)c1c(F)c(F)c(F)c(F)c1F = inactive
COc1cccc(Nc2nc(NNC(=O)Cc3ccccc3)nc(NNC(=O)c3ccncc3)n2)c1 = inactive
Cc1cc(N(CCC#N)CCC#N)ccc1/C=C/C(=O)Nc1cccc(Cl)c1 = inactive
CCCCC[C@@H]1OC(=O)[C@@]2(CC3c4ccccc4C2c2ccccc23)[C@H]1C(=O)OC = inactive
COc1cc(O)c(C(=O)CC(C)=O)c(OC)c1 = inactive
O=c1ccc2ccc(O)c3c4c(O)ccc5ccc(=O)c(c1c23)c54 = inactive
O=P1(O)c2ccccc2CSCc2ccccc21 = inactive
N#Cc1cccc2c1Sc1ccccc1N2 = inactive
COc1cc2c(cc1OC)C13CCN4C=C5CCOC6CC(=O)N2C1C6C5CC43 (configuration not stated) = inactive
Cc1cc(-c2ccccc2)nc2oc(=O)n(C)c12 = inactive
N#C/C(=C\N1CCNC1=S)C(=O)c1ccc2ccccc2c1 = inactive
Cc1ccc(S(=O)(=O)c2[nH]cc(/C(=C\C3CCCCC3)[N+](=O)[O-])c2C2CCCCC2)cc1 = active
CCn1c2ccccc2c2c(-c3ccccc3)cc3c(c21)C(=O)N(c1ccccc1)C3=O = inactive
c1ccc(CSC2(SCc3ccccc3)CCCC2)cc1 = inactive
COc1ccc(/C(C#N)=C/c2ccc(OC)c(OC)c2)cc1 = inactive
